Target: M4 muscarinic receptor (Homo sapiens)
Construct: expressed in transfected cells; host or cells: CHO (M4-CHO)
Assay: Functional mobilization of intracellular calcium (FLIPR) in M4-CHO cells
Assay type: cell-based
Details: M4-CHO cells, calcium mobilization (FLIPR); read-out: M4 Efficacy
Reported endpoint: Emax

>>> recorded_measurement("CCOC(=O)N1CCC(N2CCC3(CC2)CN(C(C)=O)c2ccc(C4=CCCC4)cc23)CC1 [compound 426]")
"< 65%"
>>> recorded_measurement("COCCOC(=O)N1CCC(CN2CCC3(CC2)CN(C(C)=O)c2ccc(C)cc23)CC1 [compound 419]")
"< 65%"
>>> recorded_measurement("c1ccc2c(c1)NCC21CCN(C2CCCCC2)CC1 [compound 375]")
"65 to 85%"
>>> recorded_measurement("COC(=O)N1CCC(CN2CCC3(CC2)CN(C(C)=O)c2ccc(C)cc23)CC1 [compound 423]")
"< 65%"

Dear colleague, could you send me Emax for each of the items below? Thanks.
1. CC(C)OC(=O)N1C2CCC1CC(N1CCC3(CC1)CN(C(=O)O[C@@H]1CCOC1)c1ccc(F)cc13)C2 (some centres unmarked) [compound 402]
2. CC(=O)N1CC2(CCN(CC3CCCCC3)CC2)c2cc(F)ccc21 [compound 393]
3. c1ccc2c(c1)NCC21CCN(C2CC3CCC(C3)C2)CC1 (centres unmarked) [compound 420]
4. CC(=O)N1CC2(CCN(C3CCN(C(=O)OC(C)C)CC3)CC2)c2cc(C)ccc21 [compound 380]

Result:
< 65%
< 65%
< 65%
65 to 85%

----------
Target: M4 muscarinic receptor (Homo sapiens, UniProt P08173)
Construct: expressed in transfected cells; host or cells: CHO (M4-CHO)
Assay: Functional mobilization of intracellular calcium (FLIPR) in M4-CHO cells
Assay type: cell-based
Details: Table 4; 100% efficacy is the maximum response obtained with the Carbachol control
Reported endpoint: Emax

Examples from the recorded data:
>>> recorded_measurement("CCC(C)C(=O)N1C2CCC1CC(N1CCC3(CC1)CN(C(C)=O)c1ccccc13)C2 (centres unmarked)")
"< 25%"
>>> recorded_measurement("COCCOC(=O)N1CCC(N2CCC3(CC2)CN(C(C)=O)c2ccccc23)CC1")
"25 to 100%"
>>> recorded_measurement("CC(=O)N[C@@H]1CC2(CCN(C3CCOCC3)CC2)c2ccccc21")
"< 25%"
>>> recorded_measurement("CC(=O)N[C@H]1CCC2(CCN(CC3CCCCC3)CC2)c2ccccc21")
"25 to 100%"
>>> recorded_measurement("CC(F)CC(=O)N1CCC(N2CCC3(CC2)CN(C(=O)N(C)C)c2ccc(F)cc23)CC1 (centres unmarked)")
"< 25%"
>>> recorded_measurement("CN(C)C(=O)N1CC2(CCN(C3CCN(c4cnc5ccccc5n4)CC3)CC2)c2cc(F)ccc21")
"25 to 100%"
>>> recorded_measurement("CN(C)C(=O)NC1CCC2(CCN(CC3CCCCC3)CC2)c2ccccc21 (centres unmarked)")
"25 to 100%"

Request: Identify the measured Emax of COc1cc2c(cc1OC)C1(CCN(C3CCCCC3)CC1)C[C@@H]2N(C(C)=O)[C@@H](C)c1ccccc1 for M4 muscarinic receptor (Homo sapiens, UniProt P08173).
Result: < 25%

----------
Biological target: M1 muscarinic receptor (Homo sapiens)
Construct: expressed in transfected cells; host or cells: CHO (M1-CHO)
Sequence (P11229 1-460): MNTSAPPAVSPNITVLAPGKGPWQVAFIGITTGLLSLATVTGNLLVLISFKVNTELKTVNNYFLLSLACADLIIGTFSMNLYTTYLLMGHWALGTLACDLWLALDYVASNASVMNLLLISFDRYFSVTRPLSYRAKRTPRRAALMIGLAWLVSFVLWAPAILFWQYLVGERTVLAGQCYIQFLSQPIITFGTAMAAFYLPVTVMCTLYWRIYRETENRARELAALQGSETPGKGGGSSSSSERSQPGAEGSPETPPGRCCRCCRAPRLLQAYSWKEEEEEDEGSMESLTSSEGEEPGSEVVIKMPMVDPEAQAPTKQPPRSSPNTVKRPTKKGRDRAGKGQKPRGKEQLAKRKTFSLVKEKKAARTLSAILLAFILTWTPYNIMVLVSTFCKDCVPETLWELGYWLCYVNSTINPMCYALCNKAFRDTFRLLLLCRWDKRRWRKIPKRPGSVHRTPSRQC
Assay: Functional mobilization of intracellular calcium (FLIPR) in M1-CHO cells
Assay type: cell-based
Conditions: Table 4; 100% efficacy is the maximum response obtained with the Carbachol control
Reported endpoint: Emax

Examples from the recorded data:
>>> recorded_measurement("CC(=O)CN1CC2(CCN(C3CCCCC3)CC2)c2cc(F)ccc21 [compound 796]")
"25 to 100%"
>>> recorded_measurement("CC(=O)N[C@H]1CCC2(CCN(CCC3=C(C)CCCC3(C)C)CC2)c2ccccc21 [compound 764]")
"25 to 100%"
>>> recorded_measurement("CC(=O)N1CC2(CCN(CC3CCN(C(=O)O[C@@H]4CCOC4)CC3)CC2)c2cc(C)ccc21 [compound 550]")
"< 25%"

The record that follows has no Emax shown yet.
Request: Identify the measured Emax of CN(C)C(=O)N1CC2(CCN(C[C@H]3CCN(c4nccs4)C3)CC2)c2cc(F)ccc21 [compound 852] for M1 muscarinic receptor (Homo sapiens).
Result: 25 to 100%

----------
So I've got a bunch of compounds here, and I need their Emax values.
Target: M1 muscarinic receptor (Homo sapiens, UniProt P11229)
Construct: expressed in transfected cells; host or cells: CHO (M1-CHO)
Experiment: Functional mobilization of intracellular calcium (FLIPR) in M1-CHO cells
Type: cell-based
Conditions: M1 receptor, calcium mobilization; read-out: M1 Efficacy

>>> recorded_measurement("CC(C)C(=O)N[C@H]1CC2(CCN(C[C@H]3C[C@H]4CC[C@H]3C4)CC2)c2ccccc21")
"> 85%"
>>> recorded_measurement("CCOC(=O)N1CCC(N2CCC3(CC2)CN(C(=O)c2ccc(F)cc2)c2ccc(F)cc23)CC1")
"65 to 85%"
>>> recorded_measurement("CCOC(=O)N1CCC(CN2CCC3(CC2)CN(C(C)=O)c2ccc(C)cc23)CC1")
"> 85%"

The record that follows has no Emax shown yet.
Request: Identify the measured Emax of CC(=O)N1CC2(CCN(C3CC4CCC(C3)N4C(=O)O[C@H]3CCOC3)CC2)c2cc(F)ccc21 (stereo partly shown) for M1 muscarinic receptor (Homo sapiens, UniProt P11229).
Result: 65 to 85%

----------
So I've got a bunch of compounds here, and I need their Emax values.
Molecular target: M4 muscarinic receptor (Homo sapiens, UniProt P08173)
Construct: expressed in transfected cells; host or cells: CHO (M4-CHO)
Sequence (P08173 1-479): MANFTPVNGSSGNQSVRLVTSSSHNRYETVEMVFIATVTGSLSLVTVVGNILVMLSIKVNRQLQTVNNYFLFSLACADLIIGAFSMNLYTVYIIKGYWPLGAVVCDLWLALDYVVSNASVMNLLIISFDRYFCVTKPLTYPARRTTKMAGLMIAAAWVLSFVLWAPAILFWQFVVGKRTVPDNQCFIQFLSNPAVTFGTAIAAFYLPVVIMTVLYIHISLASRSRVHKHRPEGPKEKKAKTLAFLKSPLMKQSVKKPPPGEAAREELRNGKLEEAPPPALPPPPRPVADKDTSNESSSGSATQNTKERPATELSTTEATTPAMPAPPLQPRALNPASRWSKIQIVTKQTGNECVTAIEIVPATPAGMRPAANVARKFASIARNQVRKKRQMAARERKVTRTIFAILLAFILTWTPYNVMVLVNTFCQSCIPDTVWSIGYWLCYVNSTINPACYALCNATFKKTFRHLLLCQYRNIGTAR
Assay: Functional mobilization of intracellular calcium (FLIPR) in M4-CHO cells
Type: cell-based
Conditions: Table 4; 100% efficacy is the maximum response obtained with the Carbachol control

>>> recorded_measurement("CCOC(=O)N1C2CCC1CC(N1CCC3(C[C@H](NC(C)=O)c4cc(F)ccc43)C1)C2 (stereo partly shown)")
"25 to 100%"
>>> recorded_measurement("CC(=O)N1CC2(CCN(C3CC4CCC(C3)N4C(=O)OC(C)C)CC2)c2ccccc21 (stereo not shown)")
"25 to 100%"
>>> recorded_measurement("COCCN1CC2(CCN(C3CCCCC3)CC2)c2cc(F)ccc21")
"25 to 100%"

Dear colleague, could you send me Emax for each of the items below? Thanks.
1. CC#CCOC(=O)N1CC[C@@H](CN2CCC3(CC2)CN(C(C)=O)c2ccccc23)C1
2. CC(=O)N1CC2(CCN(C3CCN(C(=O)OCC(F)F)CC3)CC2)c2cc(C)ccc21
3. CC(=O)N[C@H]1CC2(CCN(C3CCC(C(C)C)CC3)CC2)c2ccccc21 (stereo partly shown)
4. CCOC(=O)N1CC[C@H](CN2CCC3(CC2)CN(C(C)=O)c2cccc(C)c23)C1

Result:
1. 25 to 100%
2. 25 to 100%
3. < 25%
4. 25 to 100%

Dear colleague, could you send me Emax for each of the items below? Thanks.
1. CN(C)C(=O)N1CC2(CCN(C3CCN(c4cccc(F)c4)CC3)CC2)c2cc(F)ccc21
2. Clc1ccc2c(c1)C1(CCN(CC3CC4C=CC3C4)CC1)C[C@@H]2NCC1CC2C=CC1C2 (stereo partly shown)
3. CCOC(=O)N1CCC(N2CCC3(CC2)CN(C(C)=O)c2c(-c4ccccc4OC)cccc23)CC1

Result:
25 to 100%
25 to 100%
< 25%

Dear colleague, could you send me Emax for each of the items below? Thanks.
1. CCC(=O)N[C@H]1CC2(CCN([C@@H]3C[C@@H]4CC[C@@H]3C4)CC2)c2ccccc21
2. CCOC(=O)N1CCC(N2CCC3(CC2)CN(CC(=O)N(C)C)c2ccc(F)cc23)CC1
3. CN(C)C(=O)N1CC2(CCN(C3CCN(c4nccs4)CC3)CC2)c2cc(F)ccc21
4. CN(C)C(=O)N1CC2(CCN(C3CCN(c4ccccn4)CC3)CC2)c2cc(F)ccc21
5. COCCN1CC2(CCN(C3CCN(C(=O)OC(C)C)CC3)CC2)c2cc(F)ccc21
6. CC(=O)N[C@H]1CC2(CCN([C@@H]3CC4CCC3C4)C2)c2ccc(F)cc21 (stereo partly shown)

Result:
1. > 100%
2. 25 to 100%
3. 25 to 100%
4. 25 to 100%
5. 25 to 100%
6. < 25%
